Origin of the recorded values: PubChem BioAssay (Tox21)

ASSAY DETAILS: qHTS assay to identify small molecule antagonists of the vitamin D receptor (VDR) signaling pathway - cell viability counter screen (AID 743225); note: nearly all actives have a fitted effect of over 50% in size
MEASUREMENT PARAMETERS: VDR-bla HEK293T viability, CellTiter-Glo luminescence, 16 h; series mostly up to 61 µM
Inconclusive results are not listed. Calls of active or inactive are those of the source. Calls come from the whole dose curve; as a rule, active = well fitted cell-killing curve with a large enough effect in the repeat runs; inconclusive = weak or mixed curves, or effect the other way; inactive = no such curve, though single readings can be large or run the other way.
Outcome field: choose from 1 = active, -1 = inactive

Cn1cnc2ncnc(N)c21
-1
C=CC(=C)CCC=C(C)C
-1
Nc1cc(Cl)c([N+](=O)[O-])cc1O
-1
CCCCCCC(C)Nc1ccc(Nc2ccccc2)cc1 (configuration not stated)
1
CCCCCCCOC(=O)c1ccc(O)cc1
1

Hi, do you know how O=C1c2c(O)ccc([N+](=O)[O-])c2C(=O)c2c([N+](=O)[O-])ccc(O)c21 came out in this test?
1
